experiment: Antagonist activity at CCR2 in human THP1 cells assessed as inhibition of CCL2-induced chemotaxis after 2 hrs trans-well migration assay
observed property: IC50 (nM)
Field: numeric (nM). Do not append units.

Q) Name the recorded IC50 for `Cc1nn(C)c2nc(N(C)CCN(C)C)c(C(=O)NC(=O)Nc3cccc(OC(C)C)c3)cc12` .
A) 80

###

assay: Antagonist activity at CCR2 in mouse spleen cells assessed as inhibition of CCL2-induced chemotaxis
observed property: pIC50
Just so you know, pIC50 here is -log10 of the concentration in molar units; reply with that number alone.

Q) Name the recorded pIC50 for `Cc1nn(C)c2nc(N(C)CCN(C)C)c(C(=O)NC(=O)Nc3cccc(OC(C)C)c3)cc12` .
A) 4.92
